# Assay Target: T1, SpPot1 (Schizosaccharomyces pombe, UniProt O13988 1-555)
# T1 sequence: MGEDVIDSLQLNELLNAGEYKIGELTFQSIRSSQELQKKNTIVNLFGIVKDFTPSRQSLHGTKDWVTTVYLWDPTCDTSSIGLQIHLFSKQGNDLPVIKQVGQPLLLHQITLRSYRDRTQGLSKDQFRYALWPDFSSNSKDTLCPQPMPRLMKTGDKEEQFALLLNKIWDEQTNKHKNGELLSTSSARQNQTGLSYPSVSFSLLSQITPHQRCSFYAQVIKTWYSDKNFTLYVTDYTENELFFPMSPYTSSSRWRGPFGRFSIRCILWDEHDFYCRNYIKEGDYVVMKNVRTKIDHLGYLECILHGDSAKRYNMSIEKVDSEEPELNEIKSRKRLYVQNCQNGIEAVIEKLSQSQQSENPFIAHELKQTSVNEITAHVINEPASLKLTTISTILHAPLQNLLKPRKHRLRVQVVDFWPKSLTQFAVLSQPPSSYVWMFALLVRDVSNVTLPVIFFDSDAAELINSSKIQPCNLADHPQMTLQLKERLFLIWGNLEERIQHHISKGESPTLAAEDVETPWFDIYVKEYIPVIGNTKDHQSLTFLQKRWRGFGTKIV
# Method Description: filter binding
pKd: −log10 of the molar value.
Recorded Endpoint: pKd

>>> print(df.to_string())
                         binder  measured
0  GGTTACGGTTAC (ssDNA) [12mer]     10.85
